Format: physicochemical
condition_summary: buffer, pH 7.5
observable: T1/2, temperature where 50% of the protein was unfolded, Buffer

Lookup: Given the entry MON-HT9: engineered oxygenase protein, amino acid sequence SEQ ID NO:40 (protein) MHAALTPLTNKYRFIDVQPLTGVLGAEITGVDLREPLDDSTWNEILDAFHTYQVIYFPAQQITNEQHISFSRRFGPVDPVPLLKSIEGYPEVQMIRREANESGRILGDDWHTDSTFLDAPPAAVVMRAIEVPEYGGDTGFLSMYSAWDTLSDTMKATIEGLNVVHSATRVFGSLYQAQNWRFSNTSVKVMDVDAGDRETVHPLVVSHPVTGRRALYCNQVYCQRIEGMTDAESKCLLQFLYEHATKFDFTCRVRWKKDQVLVWDNLCTMHRAVPDYAGKFRYLTRTTVAGDRPAR , report its measured T1/2, temperature where 50% of the protein was unfolded, Buffer.
Found: 61 °C
